measurement description: reversal of MRP1-mediated doxorubicin resistance, pilot screen, H69AR cells, doxorubicin co-treatment (AID 601)
condition parameters: H69AR cells + 2 uM doxorubicin, CellTiter-Glo, 72 h; at 10 µM; stronger effect = higher value
Would you kindly list differential viability (reversal) for each of these compounds?
Please reply with the bare figure in % and do not write the unit itself.

input: Tell me the measured differential viability (reversal) of CCOC(=O)N1CCC(NC(=O)c2ccc(OC)c(CN3CC(=O)N4CCCC4C3=O)c2)CC1 (stereo unspecified) , please.
output: 10

input: Next compound: O=C(NCC(=O)N(Cc1cccs1)C(C(=O)NC1CCCC1)c1ccncc1)c1ccco1 (stereo unspecified)
output: 2.2

input: Quick one: `c1ccc2oc(SCc3cn4ccccc4n3)nc2c1`
output: 9.37

input: Do the same for `Cc1nc(SCC(=O)Nc2cc(C)on2)c2c3c(sc2n1)CCCC3` please
output: 6.21

input: Thanks! And `COc1ccc(Cn2c(=O)[nH]c3cc(C(=O)NCCCN4CCCC4)ccc3c2=O)cc1` ?
output: 6.71

input: And then `Oc1c(I)cc(Cl)c2cccnc12` , what is it?
output: -10.4

input: Field entry: `Cn1c(=O)c(=O)n(C)c2cc(S(=O)(=O)N3CCCCC3)ccc21`
output: 16.1

input: Please answer likewise for `O=C(CN1CCN(c2nc(-c3ccccc3)cs2)CC1)Nc1ccc2c(c1)OCO2`
output: 5.71

input: Entry `NS(=O)(=O)c1ccc(C(=O)O)cc1` please
output: 11.6

input: Now consider `COc1ccc(OCC(=O)N2CCN(C(=O)COc3ccc(Br)cc3)CC2)cc1` and answer again.
output: 7.19

input: Also need `Cc1cc(C(=O)N2CCN(C(c3ccccc3)c3ccccc3)CC2)no1` , thanks.
output: 3.42

* * *

Can you tell me viability for the items I'm about to list?
measurement description: reversal of MRP1-mediated doxorubicin resistance, pilot screen, H69AR cells, doxorubicin co-treatment (AID 601)
condition parameters: H69AR cells, CellTiter-Glo, 72 h; compound alone cytotoxicity; at 10 µM

input: State the recorded viability for this entry: `Cc1nc2ccc(S(=O)(=O)NCC(=O)N3CCc4ccccc4C3)cc2s1`
output: 93.5%

input: What would you report for `COc1ccc(-c2noc(CSc3nc4ccccc4c(=O)n3-c3ccccc3)n2)cc1OC` ?
output: 87.1%

input: And then `Cc1coc(NC(=O)CSc2nc(-c3ccncc3)cc(C(F)(F)F)c2C#N)n1` , what is it?
output: 71.8%

input: Same question for `CC(C)NC(=O)c1ccccc1NC(=O)c1ccccc1N(C)S(C)(=O)=O` please.
output: 88.9%

input: Now try `CCOC(=O)c1sc(NC(=O)COC(=O)Cn2cnc3ccccc32)c(C(=O)OCC)c1C` .
output: 71.2%

input: // same read-out, input: COc1cccc(NC(=O)N2CCCC2C(=O)Nc2ccc3c(c2)OCO3)c1 (stereo not given)
output: 96.3%

input: Repeat with `CC1(C)NC(=O)N(CCCOc2ccc(Br)cc2Cl)C1=O`
output: 89.7%

input: What do you get for `Cn1c(=O)[nH]c(=O)c2c1nc(NCCCn1ccnc1)n2Cc1ccccc1` ?
output: 95.8%

input: Next up: `COc1ccc2c(c1)c1c(n2C(C)=O)C(OC(C)=O)=NCC1`
output: 87.4%

input: What do we get for `OC(CCN1CCCCC1)(c1ccccc1)c1ccccc1` ?
output: 84.1%

* * *

measurement description: HUVEC growth inhibition – cell-based, human, primary screen (AID 575);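 also: 100% = median of untreated cell wells with 0.1% DMSO on each plate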
condition parameters: HUVEC proliferation, CellTiter-Glo luminescence, 72 h; at 10 µM; stronger effect = lower value
I'd appreciate it if you marked entries True when viability is lower than 90% and False when it is not.

input: For this compound, is viability lower than 90%? CCOc1ccccc1C(=O)NCC(=O)OCC(=O)N1C(C)CCCC1C (centres undefined)
output: False

input: Try the compound `O=C(O)c1ccc(-n2nc(C(F)(F)F)c3c2-c2ccoc2CC3)cc1`
output: True

input: Another compound: `COC(=O)c1ccc2c(c1)nc(C)n2CCO`
output: False

input: Ok, now `CCCCOc1ccc(C(=O)CCN2CCCCC2)cc1`
output: True

input: Also check `O=C(CNS(=O)(=O)c1ccccc1)NCc1ccccn1`
output: False

input: Now give it for `CC(C)C(=O)N1CCN(c2nc(-c3ccccc3)c3c(c2C#N)CCCC3)CC1` too.
output: True

input: Can you handle Cc1ccc2c(c1C)NC(C(=O)O)C1CC=CC21 (centres undefined) next?
output: False

input: What do we get for `Cc1cc(NC(=O)CCCC(=O)Nc2ccc(F)cc2)no1` ?
output: False

input: Now give it for `c1ccc(CNC2=NCCC2)nc1` too.
output: False

input: Similarly, `CCOC(=O)Cn1nnnc1CN(Cc1ccc(OC)cc1)Cc1cc2cc(C)cc(C)c2[nH]c1=O` ?
output: True

input: Likewise for `C=CCn1c(Br)nc2c1c(=O)[nH]c(=O)n2C` ?
output: False

input: Now give it for `CCOc1ccc(NC(=O)c2ccncc2)cc1` too.
output: False

input: Also `O=C(NCc1ccc2c(c1)OCO2)c1cccc2c1C(=O)N(C1CCCCC1)C2` ?
output: True

input: Now consider `Cc1cccc(NC(=O)c2ccc3ccccc3n2)n1` .
output: True

input: Subsequent entry: `COc1cc2c(cc1OC)CN(Cc1nc3ccsc3c(=O)[nH]1)CC2`
output: False

input: Field entry: `COC(=O)c1cc(Br)ccc1-c1ccc(/C=N/n2nnnc2N)o1`
output: True

input: Check `C/C=C(/C(=C/C)c1ccc(O)cc1)c1ccc(O)cc1` too.
output: True

input: Again, but for `Cc1ccc(/C=c2\s/c(=C(/C#N)C(=O)N3CCCC3)n(Cc3ccco3)c2=O)s1`
output: True

input: Quick one: `N#Cc1cnc(SCCc2ccccc2)nc1N`
output: False

* * *

measurement description: SK-BR-3 cell growth inhibitors, pilot screen, 24 h, human (AID 572);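 also: compound exposure lasted between 18 and 24 h rather than exactly 24 h; 100% = carrier-treated control wells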
condition parameters: SK-BR-3 viability, CellTiter-Glo luminescence, at 10 µM, stronger effect = lower value
measured attribute: viability (%)
// units = %; emit number, no label

input: viability for `O=C(OCCCN1C(=O)c2ccccc2C1=O)c1ccco1` ?
output: 102

input: Same again, this time with `c1cc2c(cc1C1=Nn3c(nnc3C3CCCCC3)SC1)OCO2`
output: 133

input: Next: `CCOC(=O)c1[nH]c(CSc2nnc(-c3ccc(OC)cc3)o2)c(C(=O)OCC)c1C`
output: 56

input: Now consider `CCCc1cc(=O)[nH]c(SCc2ccccc2)n1` .
output: 101

input: Entry to check: CCc1nnc(NC(=O)C2Cc3ccccc3CN2S(=O)(=O)c2cccs2)s1 (stereo unspecified)
output: 109

input: # repeat for CCOc1ccc2nc(NC(=O)C3CCCN(S(=O)(=O)c4c(C)noc4C)C3)sc2c1 (stereo unspecified)
output: 124

* * *

measurement description: 384-well plate pilot, post-Golgi transport modulator project, inhibition of yeast transport mutant growth (AID 636)
condition parameters: absorbance 615 nm, about 18 h, stronger effect = higher value
measured attribute: inhibition (%)
// return numeric value only (unit: %, not printed)

input: Entry COCCCn1c(=N)c(C(=O)NCC2CCCO2)cc2c(=O)n3cccc(C)c3nc21 (stereo unspecified) has what inhibition?
output: -6.8

input: Then Cc1ccc(C2C(C#N)=C(N)Oc3cc4c(cc32)OCO4)cc1 (stereo unspecified) ?
output: -4.42

input: One more compound: `CCCS(=O)(=O)C(=C1Nc2ccccc2N1)S(=O)(=O)CCC`
output: -5.68

input: Lookup `COC(=O)c1cccc(Nc2cc(C)nc(-c3ccccc3O)n2)c1`
output: 0

input: Thanks! And `Cn1c(Cc2csc(N)n2)nnc1SCC(=O)NC1CCCCC1` ?
output: 0.92

input: Here is the next compound: `CCCCC(=O)Nc1c(O)c2ccccc2[nH]c1=O`
output: -6.93

input: Can you check `CCc1cc2c(NCCC(=O)O)nc(C)nc2s1` next?
output: 0.65

input: And the next one, `Cc1ccnc(NC(=O)Nc2ccc(F)cc2)c1` ?
output: -2.08

input: Try this compound too: `Cc1nc(C)c(C(=O)OCC(=O)N2CCN(c3ccccc3)CC2)s1`
output: -4.55

input: Cool, now `CCOC(=O)N1CCN(CC(=O)Nc2cc(C)nn2-c2nc3ccccc3s2)CC1`
output: -0.39

input: Now give it for `CN1CCN(C(=O)c2ccc3c(=O)n(CCc4ccccc4)c(=S)[nH]c3c2)CC1` too.
output: -1.95

* * *

measurement description: 384-well plate pilot, post-Golgi transport modulator project, inhibition of yeast transport mutant growth (AID 636)
condition parameters: absorbance 615 nm, about 18 h, stronger effect = higher value
Calls of active or inactive are those of the source. Rule as the data show it: active = inhibition above about 31%; inactive = the rest.
measured attribute: inhibition

input: Which inhibition is reported for this compound? `Cc1ccc(Nc2nc(CSc3nnc(-c4cccs4)o3)cs2)cc1`
output: -4.8% (inactive)

input: What about `Cc1onc(-c2ccccc2)c1C(=O)N1CCN(C(=O)c2ccco2)CC1` ?
output: -6.67% (inactive)

input: Can you check `CCc1ccc(Nc2cc(=O)n(C3CCCCC3)c(=O)[nH]2)cc1` next?
output: -3.65% (inactive)

input: Same for `COCCn1c(Sc2nc(C)cs2)nc2c1c(=O)[nH]c(=O)n2C`
output: -5.07% (inactive)

input: Can you handle `Cc1nnc(NCc2n[nH]c(=O)c3ccccc23)c2ccccc12` next?
output: -3.38% (inactive)

input: Please give the result for `CCC(=O)c1ccc(OCC(=O)N2CCc3cc(OC)c(OC)cc3C2)cc1` too.
output: -2.34% (inactive)

input: Also need O=C1CC(Cc2ccccc2)C(=O)N1CCc1ccc2c(c1)OCO2 (stereo not drawn) , thanks.
output: -5.32% (inactive)

input: How about this compound: COC1=CC(=O)CC(C)C12Oc1c(Cl)c(OC)cc(OC)c1C2=O (stereo not drawn)
output: -2.99% (inactive)

input: Consider next the compound Cc1[nH]nc2c1C1(C(=O)N(Cc3ccc(Cl)cc3)c3ccccc31)C(C#N)=C(N)O2 (stereo not drawn) in the same way.
output: -4.32% (inactive)

input: Can you check N#CC(C(=O)CCN1C(=O)C2CC=CCC2C1=O)c1nc2ccccc2[nH]1 (stereo not drawn) next?
output: -5.07% (inactive)

input: What about `CCOC(=O)n1c(SCC(=O)N(CC)CC)nc2ccccc21` ?
output: -3.51% (inactive)

input: Another compound to look at: N#CC1=C(N)OC2=C(C(=O)CCC2)C1CCc1ccccc1 (stereo not drawn)
output: -6.08% (inactive)

input: Here is the next compound: `O=C(CN(C1CCCCC1)S(=O)(=O)c1ccccc1)NCc1cccnc1`
output: -6.76% (inactive)

input: Next compound up: `CC(=O)Nc1ccc(NC(=O)Cn2cnc3c(cnn3C(C)(C)C)c2=O)cc1`
output: -5.47% (inactive)

input: Now give it for `Cc1cccc2c1nc(-c1ccccc1)n1cnnc21` too.
output: 1.2% (inactive)

input: Try the compound Cc1nc2ccc(F)cc2cc1C(=O)NCC1CCCO1 (stereo not drawn)
output: -8.9% (inactive)

input: Try `C=CCn1c(SCc2ccc3nonc3c2)nnc1-c1cccs1` next.
output: -5.47% (inactive)

input: Can you handle `COc1ccc(C(=O)CSc2nnc(CNc3ccc(C)cc3C)o2)cc1` next?
output: -2.76% (inactive)

input: Also `CC(=O)N1C(=O)c2cccc3cccc(c23)C(=O)N1C(C)=O` ?
output: -1.05% (inactive)

input: Continue with `CS(=O)(=O)c1ncc(Cl)c(C(=O)Nc2ccc(N3CCOCC3)cc2)n1`
output: -4.21% (inactive)

input: `CCCNC(=O)c1c(N)n(-c2cc(OC)cc(OC)c2)c2nc3ccccc3nc12` , same question.
output: -3.87% (inactive)

input: Another compound to check: Cc1cc2c(c(=O)o1)C(C13C=CC(CC1)C3)C(C#N)=C(N)O2 (stereo not drawn)
output: -6.4% (inactive)

input: Moving on to `Cc1nc(SCC(=O)CC(=O)OC(C)C)c(C#N)c(C)c1C`
output: -2.8% (inactive)
